# Tested on: UO-31 renal
# EXPERIMENT: NCI tumour cell line growth inhibition, 48 h

COMPOUND: CCC1(OC(=O)CN2CCN(CCO)CC2)C(=O)OCc2c1cc1n(c2=O)Cc2cc3ccccc3nc2-1 (stereo not drawn)
TARGET_OR_TEST_SYSTEM: UO-31 renal
TGI: 0.851 µM

COMPOUND: N[C@H]1C2C3CC4C5CC(C42)C1(c1ccccc1)C53 (stereo partly drawn)
TARGET_OR_TEST_SYSTEM: UO-31 renal
TGI: > 100 µM

COMPOUND: CCOC(=O)c1ncoc1[C@H]1COC(C)(C)O1
TARGET_OR_TEST_SYSTEM: UO-31 renal
TGI: > 100 µM

COMPOUND: CC(=O)Oc1ccc(N2C(=O)C3c4[nH]c5ccccc5c4C4CCC(C(C)(C)C)CC4C3C2=O)cc1 (stereo not drawn)
TARGET_OR_TEST_SYSTEM: UO-31 renal
TGI: 17.7 µM

COMPOUND: CSCCC(NCc1c(O)ccc2ccc(=O)oc12)C(=O)O (stereo not drawn)
TARGET_OR_TEST_SYSTEM: UO-31 renal
TGI: > 100 µM

COMPOUND: COC(=O)C1Cc2c([nH]c3ccccc23)C(c2cccc(O)c2)N1 (stereo not drawn)
TARGET_OR_TEST_SYSTEM: UO-31 renal
TGI: > 100 µM

COMPOUND: CCCCCCCCCCCCc1ccc(C(=O)/C=C/C(=O)O)cc1
TARGET_OR_TEST_SYSTEM: UO-31 renal
TGI: 3.01 µM

COMPOUND: CC(=O)OCCC1c2ccccc2-n2nc(-c3ccccc3)c(O)c21 (stereo not drawn)
TARGET_OR_TEST_SYSTEM: UO-31 renal
TGI: 30.8 µM

COMPOUND: COc1c(Cl)ccc(Cl)c1C(=O)NNC(=O)c1c(Cl)c(Cl)c(Cl)c(Cl)c1-c1nc2ccc(C(=O)c3ccccc3)cc2[nH]1
TARGET_OR_TEST_SYSTEM: UO-31 renal
TGI: > 100 µM

COMPOUND: CSC(SC)=C1C(=O)NN=C1C
TARGET_OR_TEST_SYSTEM: UO-31 renal
TGI: > 100 µM

COMPOUND: CCOC(=O)c1c(O)[nH]c(=O)c(CC)c1C
TARGET_OR_TEST_SYSTEM: UO-31 renal
TGI: > 100 µM

COMPOUND: NCC(O)CNCC/C=C\C/C=C\C/C=C\C/C=C\C/C=C\C/C=C\CCCCC/C=C\CCNCC(O)CN (stereo not drawn)
TARGET_OR_TEST_SYSTEM: UO-31 renal
TGI: 3.72 µM

COMPOUND: CN1CCN(c2nc3ccccc3nc2C(=O)c2ccc(Cl)cc2)CC1
TARGET_OR_TEST_SYSTEM: UO-31 renal
TGI: > 100 µM

COMPOUND: Nc1nc(N)[n+]([O-])c(N)c1NCO
TARGET_OR_TEST_SYSTEM: UO-31 renal
TGI: > 100 µM

COMPOUND: COc1cc2c(cc1OC)C(=O)C(Br)CC2 (stereo not drawn)
TARGET_OR_TEST_SYSTEM: UO-31 renal
TGI: 6.77 µM

COMPOUND: N=C(/C=C/c1ccc(-c2cn3cc(/C=C/C(=N)N4CCCC4)ccc3n2)cc1)N1CCCC1
TARGET_OR_TEST_SYSTEM: UO-31 renal
TGI: > 100 µM

COMPOUND: Cn1cc(-c2ccc(=O)n(Cc3cccc(-c4ncc(OCCN5CCOCC5)cn4)c3)n2)cn1
TARGET_OR_TEST_SYSTEM: UO-31 renal
TGI: > 100 µM

COMPOUND: CC(=O)Oc1c(C)cc(-c2cc(C)c(OC(C)=O)c(C)c2)cc1C
TARGET_OR_TEST_SYSTEM: UO-31 renal
TGI: 84.6 µM

COMPOUND: O=[N+]([O-])c1ccc(Cl)cc1-n1nc(-c2ccccc2)cc1-c1ccccc1
TARGET_OR_TEST_SYSTEM: UO-31 renal
TGI: > 100 µM

COMPOUND: COC(=O)c1ccc2c(c1)CC1(C2)Cc2cc3c(c(C(=O)OC)c2C1)CCCC3 (stereo not drawn)
TARGET_OR_TEST_SYSTEM: UO-31 renal
TGI: > 100 µM

COMPOUND: O=[N+]([O-])c1ccc(-c2ccc(/C=N/n3c(-c4ccc(Cl)cc4)n[nH]c3=S)o2)cc1
TARGET_OR_TEST_SYSTEM: UO-31 renal
TGI: > 100 µM

COMPOUND: S=c1[nH]nc(COc2ccc(Cl)cc2)o1
TARGET_OR_TEST_SYSTEM: UO-31 renal
TGI: > 100 µM

COMPOUND: CCOc1ccc2ccccc2c1NC1=NCCO1
TARGET_OR_TEST_SYSTEM: UO-31 renal
TGI: 64.7 µM

COMPOUND: CC(=O)c1ccc(Nc2cc(-n3ccnc3)nc3ccccc23)cc1
TARGET_OR_TEST_SYSTEM: UO-31 renal
TGI: > 100 µM

COMPOUND: O=C(O)C(Cc1ccc2c(c1)CCC2)(Cc1ccc2c(c1)CCC2)C(=O)O
TARGET_OR_TEST_SYSTEM: UO-31 renal
TGI: > 100 µM

COMPOUND: CC12CC3CC/C(=N\O)C(C1)C3(N1CCOCC1)C/C2=N/O (stereo not drawn)
TARGET_OR_TEST_SYSTEM: UO-31 renal
TGI: > 100 µM

COMPOUND: COc1ccc(NC(=O)CC(=O)n2nc(C)c(N=Nc3ccc(C)c(C)c3)c2C)cc1
TARGET_OR_TEST_SYSTEM: UO-31 renal
TGI: 54.8 µM

COMPOUND: O=C1C2=C(c3ccccc31)C(c1ccc(Cl)cc1)N1C(=O)CCSC1=N2 (stereo not drawn)
TARGET_OR_TEST_SYSTEM: UO-31 renal
TGI: > 100 µM

COMPOUND: O=C(O)CCC(NC(=O)c1ccc(Nc2nc3ccccc3nc2C(=O)O)cc1)C(=O)O (stereo not drawn)
TARGET_OR_TEST_SYSTEM: UO-31 renal
TGI: > 100 µM

COMPOUND: COc1ccc2c(c1)c1nn(CCN(C)C)c3ccc4c(=O)n(CCN(C)C)c(=O)n2c4c13
TARGET_OR_TEST_SYSTEM: UO-31 renal
TGI: 0.329 µM

COMPOUND: Cc1ccc(/C=C2\N=C(N3CCCCC3)NC2=O)cc1
TARGET_OR_TEST_SYSTEM: UO-31 renal
TGI: > 100 µM

COMPOUND: O=C(Nc1n[nH]c2nc(-c3ccco3)c(Br)cc12)C1CC1
TARGET_OR_TEST_SYSTEM: UO-31 renal
TGI: > 25 µM

COMPOUND: CCCCCCCCCCCCCCCCCCNC(=O)[C@H]1CSC(c2ccc(OC)c(F)c2)N1 (stereo partly drawn)
TARGET_OR_TEST_SYSTEM: UO-31 renal
TGI: > 48.4 µM

COMPOUND: O=C(c1ccccc1)c1nn(-c2ccc(Cl)cc2)c2nc3nc(-c4ccccc4)cc(=O)n3nc12
TARGET_OR_TEST_SYSTEM: UO-31 renal
TGI: > 100 µM

COMPOUND: O=C(O)C(CS)NCc1c2ccccc2[n+]([O-])c2ccccc12 (stereo not drawn)
TARGET_OR_TEST_SYSTEM: UO-31 renal
TGI: 66.3 µM

COMPOUND: CC(=O)[CH-]C(=O)c1ccccc1.CC(=O)[CH-]C(=O)c1ccccc1.CCN(CC)CC[O-].CCN(CC)CC[O-].Cl.[Ti+4]
TARGET_OR_TEST_SYSTEM: UO-31 renal
TGI: 74.8 µM

COMPOUND: Cc1cc(Br)cc(C)c1NC(=O)C(=O)CC(=O)c1sc(-n2nc(-c3ccccc3)cc2-c2ccccc2)nc1C
TARGET_OR_TEST_SYSTEM: UO-31 renal
TGI: > 100 µM

COMPOUND: C[C@@H](c1ccc2nccn2c1)n1nnc2ncc(-c3cnn(C)c3)nc21
TARGET_OR_TEST_SYSTEM: UO-31 renal
TGI: > 100 µM

COMPOUND: Cc1c(NC(=O)C(=O)N=NC(=O)c2ccncc2)c(O)c2ccccc2c1O
TARGET_OR_TEST_SYSTEM: UO-31 renal
TGI: 40.5 µM

COMPOUND: CCOC(=O)/N=c1\ss/c(=N\C(=S)N(C)C)n1-c1ccccc1
TARGET_OR_TEST_SYSTEM: UO-31 renal
TGI: > 100 µM

COMPOUND: O=C1Nc2cccc3ncn(c23)C2=C1CCCC2
TARGET_OR_TEST_SYSTEM: UO-31 renal
TGI: > 100 µM

COMPOUND: O/N=c1/ccn(O)c2ccccc12
TARGET_OR_TEST_SYSTEM: UO-31 renal
TGI: 3.93 µM

COMPOUND: CC(C)=CC(=O)CC(=O)C(=O)Nc1ccc(C)c(C)c1
TARGET_OR_TEST_SYSTEM: UO-31 renal
TGI: > 100 µM
